- MEASURED_TARGET: T1, RBFOX1 RRM (Homo sapiens, UniProt Q9NWB1 109-208)
- T1 sequence: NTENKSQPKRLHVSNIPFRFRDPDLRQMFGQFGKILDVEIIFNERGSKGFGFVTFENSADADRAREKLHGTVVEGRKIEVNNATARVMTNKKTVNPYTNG
- ASSAY_PROTOCOL: EMSA; HiTS-Eq, 1 nM pool, 10 min; buffer printed only for the single-RNA assays: 10 mM Tris pH 7.5, 150 mM NaCl, 3.4 mM EDTA, 0.001% NP-40, 30 C
- EXPERIMENTAL_PARAMETERS: tags: His6 N-terminal (pET28a); label: 5' 32P
In all, about 16,000 sequences were measured (“ka relative to ugcaugu”: median about 0.0091, highest 2% from about 0.032 on). Many of the other results were omitted from the sample, so the highest values are more common in it than they were.
MEASURED_QUANTITY: binding signal

Some solved entries appear below for comparison.
1. CGUUGAG (DNA:RNA) RNA: GGGAGACCGGAAUUCAGAUUGUCCCGUUGAGUUAAAUCCCGUCGUAGCCACCA DNA 1: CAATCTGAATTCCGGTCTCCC DNA 2: TGGTGGCTACGACGGGATT :: 0.0235 KA relative to UGCAUGU
2. GCUUGAA (DNA:RNA) RNA: GGGAGACCGGAAUUCAGAUUGUCCGCUUGAAUUAAAUCCCGUCGUAGCCACCA DNA 1: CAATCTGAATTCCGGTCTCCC DNA 2: TGGTGGCTACGACGGGATT :: 0.0288 KA relative to UGCAUGU
3. GCUGGUC (DNA:RNA) RNA: GGGAGACCGGAAUUCAGAUUGUCCGCUGGUCUUAAAUCCCGUCGUAGCCACCA DNA 1: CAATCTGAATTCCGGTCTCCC DNA 2: TGGTGGCTACGACGGGATT :: 0.0255 KA relative to UGCAUGU

--- query ---
Consider the binder shown here: GCCGCGC (DNA:RNA) RNA: GGGAGACCGGAAUUCAGAUUGUCCGCCGCGCUUAAAUCCCGUCGUAGCCACCA DNA 1: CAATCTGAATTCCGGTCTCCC DNA 2: TGGTGGCTACGACGGGATT What is its recorded binding signal? 0.0197 KA relative to UGCAUGU
